system: TT cells (MTC, RET C634W); test: Inhibition of proliferation of TT cells (CellTiter-Glo, 72 h); format: cell-based; conditions: Homo sapiens
pIC50: −log10 of the molar value.
Each entry below carries its reported pIC50.
Metric: pIC50

[[record]]
compound = "C#C[C@](C)(O)COc1cc(-c2ccc(N3CC4CC(C3)N4Cc3ccc(OC)nc3)nc2)c2c(C#N)cnn2c1 [Embodiment 64]"
number = 7.56

[[record]]
compound = "COc1ccc(CN2C3CC2CN(c2ccc(-c4cc(C#C[C@H](C)O)cn5ncc(C#N)c45)cn2)C3)cn1 [Embodiment 21]"
number = 7.74

[[record]]
compound = "COc1ccc(CN2C3CC2CN(c2ccc(-c4cc(OCC(C)(C)C#N)cn5ncc(C#N)c45)cn2)C3)cn1 [Embodiment 9]"
number = 7.53

[[record]]
compound = "CC1(O)CN(c2cc(-c3ccc(N4CCC(C)(NC(=O)c5ncccc5Cl)CC4)nc3)c3c(C#N)cnn3c2)C1 [Embodiment 95]"
number = 7.82

[[record]]
compound = "COc1ncc(CN2C3CC2CN(c2ccc(-c4cc(N5CC(C(C)(C)O)C5)cn5ncc(C#N)c45)cn2)C3)cc1F [Embodiment 31]"
number = 8.18

[[record]]
compound = "COCC(C)(O)C#Cc1cc(-c2ccc(N3CC4CC(C3)N4Cc3ccc(OC)nc3)nc2)c2c(C#N)cnn2c1 (stereo not drawn) [Embodiment 75]"
number = 7.61

[[record]]
compound = "COc1ncc(CN2C3CC2CN(c2ccc(-c4cc(OCC5(C#N)CC5)cn5ncc(C#N)c45)cn2)C3)cc1F [Embodiment 55]"
number = 7.54

[[record]]
compound = "Cc1ccc(F)cc1C(=O)NC1(C)CCN(c2ccc(-c3cc(C#CC(C)(C)N)cn4ncc(C#N)c34)cn2)CC1 [Embodiment 87]"
number = 7.63

[[record]]
compound = "COc1ncc(CN2C3CC2CN(c2ccc(-c4cc(C#CC5(O)CCOCC5)cn5ncc(C#N)c45)cn2)C3)cc1F [Embodiment 79]"
number = 7.98

[[record]]
compound = "CC(C)(N)C#Cc1cc(-c2ccc(N3CCC(C)(NC(=O)c4ncccc4Cl)CC3)nc2)c2c(C#N)cnn2c1 [Embodiment 86]"
number = 7.84

[[record]]
compound = "CC1(NC(=O)c2ncccc2Cl)CCN(c2ccc(-c3cc(OCC4(N)CC4)cn4ncc(C#N)c34)cn2)CC1 [Embodiment 91]"
number = 7.53

[[record]]
compound = "COc1ccc(CN2C3CC2CN(c2ccc(-c4cc(OCC56CC(C(N)=O)(C5)C6)cn5ncc(C#N)c45)cn2)C3)cn1 [Embodiment 66]"
number = 8.29

[[record]]
compound = "C#C[C@@](C)(O)COc1cc(-c2ccc(N3CC4CC(C3)N4Cc3ccc(OC)nc3)nc2)c2c(C#N)cnn2c1 [Embodiment 63]"
number = 7.85

[[record]]
compound = "COc1ncc(CN2C3CC2CN(c2ccc(-c4cc(OCC5CC(C)(O)C5)cn5ncc(C#N)c45)cn2)C3)cc1F (stereo not drawn) [Embodiment 72]"
number = 7.86

[[record]]
compound = "[2H]C([2H])([2H])Oc1ccc(CN2C3CC2CN(c2ccc(-c4cc(N5CC(C(C)(C)O)C5)cn5ncc(C#N)c45)cn2)C3)cn1 [Embodiment 41]"
number = 8.02


---

test: Balb/C mouse pharmacokinetics, oral 5 mg/kg; type: in vivo, Balb/C mice; conditions: male, p.o. 5 mg/kg, plasma, read-out: Curve area AUC0-t
Please enter t where AUC(0-t) is greater than or equal to 20000 ng·h/mL, and f where it is lower.

[[record]]
compound = "COc1ccc(CN2C3CC2CN(c2ccc(-c4cc(N5CC(C)(C#N)C5)cn5ncc(C#N)c45)cn2)C3)cn1"
class_name = "t"

[[record]]
compound = "C#C[C@@](C)(O)COc1cc(-c2ccc(N3CC4CC(C3)N4Cc3ccc(OC)nc3)nc2)c2c(C#N)cnn2c1"
class_name = "f"

[[record]]
compound = "C#CC(C)(O)COc1cc(-c2ccc(N3CC4CC(C3)N4Cc3ccc(OC)nc3)nc2)c2c(C#N)cnn2c1 (stereo not shown)"
class_name = "f"

[[record]]
compound = "COc1ccc(CN2C3CC2CN(c2ccc(-c4cc(C#CC(C)(C)O)cn5ncc(C#N)c45)cn2)C3)cn1"
class_name = "t"

[[record]]
compound = "COc1ncc(CN2C3CC2CN(c2ccc(-c4cc(C#CC(C)(C)O)cn5ncc(C#N)c45)cn2)C3)cc1F"
class_name = "f"

[[record]]
compound = "COc1ncc(CN2C3CC2CN(c2ccc(-c4cc(N5CC(C(C)(C)O)C5)cn5ncc(C#N)c45)cn2)C3)cc1F"
class_name = "f"

[[record]]
compound = "CC1(NC(=O)c2ncccc2Cl)CCN(c2ccc(-c3cc(OCC4(C#N)CC4)cn4ncc(C#N)c34)cn2)CC1"
class_name = "t"


---

Target: RET V804L (Homo sapiens, UniProt P07949, V804L)
Sequence (P07949 29-1114 V804L): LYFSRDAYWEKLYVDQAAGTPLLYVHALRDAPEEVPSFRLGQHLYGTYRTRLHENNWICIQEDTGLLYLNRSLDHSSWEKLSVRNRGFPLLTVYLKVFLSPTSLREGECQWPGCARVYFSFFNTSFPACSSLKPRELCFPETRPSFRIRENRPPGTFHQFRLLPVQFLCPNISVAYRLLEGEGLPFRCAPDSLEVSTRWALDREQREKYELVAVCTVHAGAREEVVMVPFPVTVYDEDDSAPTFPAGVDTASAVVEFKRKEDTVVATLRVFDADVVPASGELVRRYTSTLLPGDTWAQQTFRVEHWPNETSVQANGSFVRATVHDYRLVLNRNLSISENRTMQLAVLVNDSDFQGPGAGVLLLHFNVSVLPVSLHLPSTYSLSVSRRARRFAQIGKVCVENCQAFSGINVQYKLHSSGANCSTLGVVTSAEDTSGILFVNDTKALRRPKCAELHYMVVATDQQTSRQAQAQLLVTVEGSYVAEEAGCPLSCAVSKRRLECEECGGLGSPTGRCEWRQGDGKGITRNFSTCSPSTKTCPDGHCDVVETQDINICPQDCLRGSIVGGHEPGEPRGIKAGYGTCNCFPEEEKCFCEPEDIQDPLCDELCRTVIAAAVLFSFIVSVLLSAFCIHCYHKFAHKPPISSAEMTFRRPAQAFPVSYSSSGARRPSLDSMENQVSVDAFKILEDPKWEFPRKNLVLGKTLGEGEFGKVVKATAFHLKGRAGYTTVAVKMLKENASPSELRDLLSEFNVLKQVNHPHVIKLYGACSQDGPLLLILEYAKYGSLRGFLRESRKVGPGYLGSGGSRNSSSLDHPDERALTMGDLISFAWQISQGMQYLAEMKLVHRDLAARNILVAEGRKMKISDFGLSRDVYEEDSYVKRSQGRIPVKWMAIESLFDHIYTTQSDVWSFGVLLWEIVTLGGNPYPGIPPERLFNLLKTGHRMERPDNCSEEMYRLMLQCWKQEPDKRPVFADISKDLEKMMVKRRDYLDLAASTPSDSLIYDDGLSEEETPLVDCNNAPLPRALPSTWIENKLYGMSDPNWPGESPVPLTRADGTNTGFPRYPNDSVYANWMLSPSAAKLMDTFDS
Experiment: HTRF kinase activity inhibition, RET V804L
Details: ATP at Km
Excerpt: […] In this experiment, a homogeneous time-resolved fluorescence (HTRF) method was used for the detection of compounds on RET kinase activity.
pIC50: −log10 of the molar value.
Each entry below carries its reported pIC50.
Metric: pIC50

[[record]]
compound = "C#C[C@](C)(O)COc1cc(-c2ccc(N3CC4CC(C3)N4Cc3ccc(OC)nc3)nc2)c2c(C#N)cnn2c1 [Embodiment 64]"
metric = "pIC50"
number = 9.64

[[record]]
compound = "COc1ccc(CN2C3CC2CN(c2ccc(-c4cc(N5CC(C)(C#N)C5)cn5ncc(C#N)c45)cn2)C3)cn1 [Embodiment 77]"
metric = "pIC50"
number = 9.31

[[record]]
compound = "COc1ncc(CN2C3CC2CN(c2ccc(-c4cc(C#CC(C)(C)O)cn5ncc(C#N)c45)cn2)C3)cc1F [Embodiment 18]"
metric = "pIC50"
number = 9.13

[[record]]
compound = "CC1(NC(=O)c2ncccc2Cl)CCN(c2ccc(-c3cc(C#CC4(O)COC4)cn4ncc(C#N)c34)cn2)CC1 [Embodiment 97]"
metric = "pIC50"
number = 9.55

[[record]]
compound = "C#C[C@@](C)(O)COc1cc(-c2ccc(N3CC4CC(C3)N4Cc3ccc(OC)nc3)nc2)c2c(C#N)cnn2c1 [Embodiment 63]"
metric = "pIC50"
number = 9.62


---

Each entry below carries its reported Ratio (KDR/RET).
biological target: KDR kinase (Homo sapiens, UniProt P35968); construct: purchased Carna 08-191; test: HTRF kinase activity inhibition, KDR; assay type: biochemical; details: KDR IC50 / RET IC50
Sequence (P35968 20-1356): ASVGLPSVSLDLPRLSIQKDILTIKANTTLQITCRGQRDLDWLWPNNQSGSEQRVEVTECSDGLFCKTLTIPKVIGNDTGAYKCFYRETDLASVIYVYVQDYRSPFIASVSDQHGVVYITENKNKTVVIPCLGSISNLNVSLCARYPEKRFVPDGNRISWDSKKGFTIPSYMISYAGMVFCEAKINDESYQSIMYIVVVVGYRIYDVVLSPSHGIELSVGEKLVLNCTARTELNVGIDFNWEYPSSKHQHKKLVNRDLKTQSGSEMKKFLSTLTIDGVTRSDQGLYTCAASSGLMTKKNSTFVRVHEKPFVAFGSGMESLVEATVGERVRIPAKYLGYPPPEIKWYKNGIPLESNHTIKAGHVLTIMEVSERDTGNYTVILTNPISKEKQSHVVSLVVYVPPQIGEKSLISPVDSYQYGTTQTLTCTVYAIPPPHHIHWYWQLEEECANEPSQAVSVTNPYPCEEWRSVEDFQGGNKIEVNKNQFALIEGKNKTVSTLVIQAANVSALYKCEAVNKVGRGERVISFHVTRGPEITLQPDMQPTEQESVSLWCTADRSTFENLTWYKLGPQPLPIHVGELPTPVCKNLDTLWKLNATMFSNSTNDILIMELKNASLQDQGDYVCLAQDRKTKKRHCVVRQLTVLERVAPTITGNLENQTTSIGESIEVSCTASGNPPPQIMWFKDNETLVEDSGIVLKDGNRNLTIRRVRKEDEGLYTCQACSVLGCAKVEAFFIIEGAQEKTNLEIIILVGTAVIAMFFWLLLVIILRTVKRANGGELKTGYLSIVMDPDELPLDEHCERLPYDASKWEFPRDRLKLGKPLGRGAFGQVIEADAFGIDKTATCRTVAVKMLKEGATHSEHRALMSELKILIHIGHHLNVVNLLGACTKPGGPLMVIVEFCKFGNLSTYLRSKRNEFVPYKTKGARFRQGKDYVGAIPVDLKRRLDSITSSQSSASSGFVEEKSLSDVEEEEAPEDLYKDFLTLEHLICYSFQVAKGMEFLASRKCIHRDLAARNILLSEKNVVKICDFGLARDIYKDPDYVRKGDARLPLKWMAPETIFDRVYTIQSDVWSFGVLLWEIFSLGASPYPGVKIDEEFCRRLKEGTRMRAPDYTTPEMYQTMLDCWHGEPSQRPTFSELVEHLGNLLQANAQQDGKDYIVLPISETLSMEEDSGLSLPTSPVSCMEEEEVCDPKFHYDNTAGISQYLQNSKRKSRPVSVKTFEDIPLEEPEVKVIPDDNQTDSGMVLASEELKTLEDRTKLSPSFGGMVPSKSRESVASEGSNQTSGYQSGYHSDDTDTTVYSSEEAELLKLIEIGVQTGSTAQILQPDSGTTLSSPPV
Metric: Ratio (KDR/RET)

[[record]]
item_smiles = "COc1ccc(CN2C3CC2CN(c2ccc(-c4cc(NC(=O)C5(C#N)CC5)cn5ncc(C#N)c45)cn2)C3)cn1"
measured_target = "KDR kinase (Homo sapiens, UniProt P35968)"
number = 137

[[record]]
item_smiles = "COc1ncc(CN2C3CC2CN(c2ccc(-c4cc(OCC5(C#N)CC5)cn5ncc(C#N)c45)cn2)C3)cc1F"
measured_target = "KDR kinase (Homo sapiens, UniProt P35968)"
number = 121

[[record]]
item_smiles = "COc1ccc(CN2C3CC2CN(c2ccc(-c4cc(OCC(C)(C)C#N)cn5ncc(C#N)c45)cn2)C3)cn1"
measured_target = "KDR kinase (Homo sapiens, UniProt P35968)"
number = 92

[[record]]
item_smiles = "COc1ccc(CN2C3CC2CN(c2ccc(-c4cc(OCC5(C#N)CCC5)cn5ncc(C#N)c45)cn2)C3)cn1"
measured_target = "KDR kinase (Homo sapiens, UniProt P35968)"
number = 257

[[record]]
item_smiles = "COc1ccc(CN2C3CC2CN(c2ccc(-c4cc(OCC5(C#N)COC5)cn5ncc(C#N)c45)cn2)C3)cn1"
measured_target = "KDR kinase (Homo sapiens, UniProt P35968)"
number = 85

[[record]]
item_smiles = "COc1ccc(CN2C3CC2CN(c2ccc(-c4cc(N5CC(C(C)(C)O)C5)cn5ncc(C#N)c45)cn2)C3)cn1"
measured_target = "KDR kinase (Homo sapiens, UniProt P35968)"
number = 16

[[record]]
item_smiles = "COc1ccc(CN2C3CC2CN(c2ccc(-c4cc(C#C[C@H](C)O)cn5ncc(C#N)c45)cn2)C3)cn1"
measured_target = "KDR kinase (Homo sapiens, UniProt P35968)"
number = 23


---

assay: Balb/C mouse pharmacokinetics, oral 5 mg/kg; type: in vivo, Balb/C mice; conditions: male, p.o. 5 mg/kg, plasma, read-out: Average residence time MRT
With a cut-off of 4 h, any MRT strictly below it is called 1.0; any MRT meeting it or above is called 0.0.

[[record]]
item_smiles = "COc1ccc(CN2C3CC2CN(c2ccc(-c4cc(OCC5(C#N)CCOCC5)cn5ncc(C#N)c45)cn2)C3)cn1"
class_name = 0.0

[[record]]
item_smiles = "COc1ccc(CN2C3CC2CN(c2ccc(-c4cc(C#CC(C)(C)O)cn5ncc(C#N)c45)cn2)C3)cn1"
class_name = 0.0

[[record]]
item_smiles = "CC1(NC(=O)c2ncccc2Cl)CCN(c2ccc(-c3cc(OCC4(C#N)CC4)cn4ncc(C#N)c34)cn2)CC1"
class_name = 1.0

[[record]]
item_smiles = "COc1ncc(CN2C3CC2CN(c2ccc(-c4cc(C#C[C@@H](C)O)cn5ncc(C#N)c45)cn2)C3)cc1F"
class_name = 1.0

[[record]]
item_smiles = "C#C[C@](C)(O)COc1cc(-c2ccc(N3CC4CC(C3)N4Cc3ccc(OC)nc3)nc2)c2c(C#N)cnn2c1"
class_name = 1.0

[[record]]
item_smiles = "COc1ccc(CN2C3CC2CN(c2ccc(-c4cc(OC[C@H]5C[C@@](C)(O)C5)cn5ncc(C#N)c45)cn2)C3)cn1"
class_name = 0.0

[[record]]
item_smiles = "C#C[C@@](C)(O)COc1cc(-c2ccc(N3CC4CC(C3)N4Cc3ccc(OC)nc3)nc2)c2c(C#N)cnn2c1"
class_name = 1.0

[[record]]
item_smiles = "COc1ccc(CN2C3CC2CN(c2ccc(-c4cc(OCC5(C#N)CCC5)cn5ncc(C#N)c45)cn2)C3)cn1"
class_name = 1.0

[[record]]
item_smiles = "C#C[C@](C)(O)COc1cc(-c2ccc(N3CC4CC(C3)N4Cc3cnc(OC)c(F)c3)nc2)c2c(C#N)cnn2c1"
class_name = 0.0

[[record]]
item_smiles = "COc1ccc(CN2C3CC2CN(c2ccc(-c4cc(N5CC(C)(C#N)C5)cn5ncc(C#N)c45)cn2)C3)cn1"
class_name = 0.0

[[record]]
item_smiles = "COc1ncc(CN2C3CC2CN(c2ccc(-c4cc(C#CC(C)(C)O)cn5ncc(C#N)c45)cn2)C3)cc1F"
class_name = 0.0

[[record]]
item_smiles = "COc1ncc(CN2C3CC2CN(c2ccc(-c4cc(N5CC(C(C)(C)O)C5)cn5ncc(C#N)c45)cn2)C3)cc1F"
class_name = 0.0

[[record]]
item_smiles = "COc1ncc(CN2C3CC2CN(c2ccc(-c4cc(OCC5(C#N)CC5)cn5ncc(C#N)c45)cn2)C3)cc1F"
class_name = 0.0

[[record]]
item_smiles = "COc1ccc(CN2C3CC2CN(c2ccc(-c4cc(N5CC(C(C)(C)O)C5)cn5ncc(C#N)c45)cn2)C3)cn1"
class_name = 1.0

[[record]]
item_smiles = "COc1ccc(CN2C3CC2CN(c2ccc(-c4cc(OCC(C)(C)C#N)cn5ncc(C#N)c45)cn2)C3)cn1"
class_name = 0.0

[[record]]
item_smiles = "COc1ncc(CN2C3CC2CN(c2ccc(-c4cc(OCC5(C#N)CCOCC5)cn5ncc(C#N)c45)cn2)C3)cc1F"
class_name = 0.0

